Test system: Escherichia coli
TEST_DETAILS: Antibacterial activity against Escherichia coli ATCC 25922 assessed as bacterial growth inhibition measured after 18 hrs by CLSI protocol based two-fold serial microdilution method
Format: functional, organism-based
Calls of active or inactive are those of the source. No cut-off for these calls is given here.
MEASUREMENT_KIND: Activity

MOLECULE: CC[C@@H](C(=O)[C@@H](C)[C@@H](O)[C@H](C)[C@@H]1O[C@@H]([C@@H](CC)C(=O)O)CC[C@@H]1C)[C@H]1O[C@]2(C=C[C@@H](O)[C@]3(CC[C@@](C)([C@H]4CC[C@](O)(CC)[C@H](C)O4)O3)O2)[C@H](C)C[C@@H]1C
MEASUREMENT_KIND: Activity
ENDPOINT_RESULT: inactive

MOLECULE: C#CCN[C@@H]1C=C[C@]2(O[C@H]([C@@H](CC)C(=O)[C@@H](C)[C@@H](O)[C@H](C)[C@@H]3O[C@@H]([C@@H](CC)C(=O)O)CC[C@@H]3C)[C@@H](C)C[C@H]2C)O[C@@]12CC[C@@](C)([C@H]1CC[C@](O)(CC)[C@H](C)O1)O2
MEASUREMENT_KIND: Activity
ENDPOINT_RESULT: inactive

MOLECULE: C#CCOC(=O)[C@H](CC)[C@H]1CC[C@H](C)[C@H]([C@@H](C)[C@H](O)[C@H](C)C(=O)[C@H](CC)[C@H]2O[C@]3(C=C[C@@H](O)[C@]4(CC[C@@](C)([C@H]5CC[C@](O)(CC)[C@H](C)O5)O4)O3)[C@H](C)C[C@@H]2C)O1
MEASUREMENT_KIND: Activity
ENDPOINT_RESULT: inactive
